Biological target: T1, OTR501 (Artificial, UniProt Q9XDM8 SEQ:1-184)
T1 chain: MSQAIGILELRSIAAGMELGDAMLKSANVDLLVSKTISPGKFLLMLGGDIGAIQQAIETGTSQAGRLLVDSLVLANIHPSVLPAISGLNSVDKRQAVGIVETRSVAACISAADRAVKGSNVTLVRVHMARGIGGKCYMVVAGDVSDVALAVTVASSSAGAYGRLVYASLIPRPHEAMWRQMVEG
Assay: fluorescence quenching kinetics koff/kon, PBS, room temp
Conditions: tags: C-terminal His6; chain copies: 24 (inferred); label: Atto488 5'
MEASUREMENT_LABEL: pKd
One number for each entry, as −log10 of the molar value.

Determine its reported pKd: TTAATTAAAGACTTCAAGCGG (ssDNA) [Atto488-ssDNA (A488-DNA)]
9.89
